Record form. Attribute: viability, T/C. Fill in for each entry.
Test system: 282377-053-R-J1-PDC complex spheroid viability
Assay: Anticancer human tumor 282377-053-R-J1-PDC patient-derived colon adenocarcinoma cell line growth inhibition [RAS]
Conditions: second compound 0.00949 µM; first compound 0.00316 µM; stronger effect = lower value
Answers are plain numbers, in %.

CC(C)n1nc(-c2ccc3oc(N)nc3c2)c2c(N)ncnc21 + CCn1c(-c2cccnc2C(C)OC)c2c3cc(ccc31)N1CCOC(CC(NC(=O)C(C(C)C)N(C)C(=O)C3(F)CCN(C(=O)C#CC(C)(C)N(C)C)CC3)C(=O)N3CCCC(N3)C(=O)OCC(C)(C)C2)C1: 98.5

Consider the following items and state reported viability, T/C for each.
1. CCN1CCN(Cc2ccc(Nc3ncc(F)c(-c4cc(F)c5nc(C)n(C(C)C)c5c4)n3)nc2)CC1 + CCn1c(-c2cc(N3CCN(C)CC3)cnc2C(C)OC)c2c3cc(ccc31)-c1csc(n1)CC(NC(=O)C1CC1C)C(=O)N1CCCC(N1)C(=O)OCC(C)(C)C2
2. C=CC(=O)Nc1cc(Nc2nccc(-c3cn(C)c4ccccc34)n2)c(OC)cc1N(C)CCN(C)C + CCn1c(-c2cc(N3CCN(C)CC3)cnc2C(C)OC)c2c3cc(ccc31)-c1csc(n1)CC(NC(=O)C1CC1C)C(=O)N1CCCC(N1)C(=O)OCC(C)(C)C2
3. C=CC(=O)N1CCN(c2nc(OCC3CCCN3C)nc3c(F)c(-c4nc(N)cc(C)c4C(F)(F)F)c(Cl)cc23)C(C)C1 (centres undefined) + CCn1c(-c2cc(N3CCN(C)CC3)cnc2C(C)OC)c2c3cc(ccc31)-c1csc(n1)CC(NC(=O)C1CC1C)C(=O)N1CCCC(N1)C(=O)OCC(C)(C)C2

**Result**
[115, 102, 134]

----------
Tested on: 282377-053-R-J1-PDC complex spheroid viability
Assay: Anticancer human tumor 282377-053-R-J1-PDC cell line growth inhibition [RAS];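 further: spheroids exposed to agents for seven days before readout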;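 on viability, T/C: luminescence viability as percent of DMSO vehicle control wells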
Details: second compound 0.3 µM; first compound 0.03 µM; stronger effect = lower value
Record form. Attribute: viability, T/C. Fill in for each entry.
Numbers only, in %.

Observe how each entry below is paired with its result.
CCc1c2c(nc3ccc(O)cc13)-c1cc3c(c(=O)n1C2)COC(=O)[C@]3(O)CC + CCn1c(-c2cccnc2C(C)OC)c2c3cc(ccc31)N1CCOC(CC(NC(=O)C(C(C)C)N(C)C(=O)C3(F)CCN(C(=O)C#CC(C)(C)N(C)C)CC3)C(=O)N3CCCC(N3)C(=O)OCC(C)(C)C2)C1: 117
CC1(C)CCC(Nc2ncc(C(F)(F)F)c(-c3c[nH]c4c(P(C)(C)=O)c(C#N)ccc34)n2)CN1 (centres undefined) + CCn1c(-c2cccnc2C(C)OC)c2c3cc(ccc31)N1CCOC(CC(NC(=O)C(C(C)C)N(C)C(=O)C3(F)CCN(C(=O)C#CC(C)(C)N(C)C)CC3)C(=O)N3CCCC(N3)C(=O)OCC(C)(C)C2)C1: 84.5

Consider the following items and state reported viability, T/C for each.
1. CCc1c2c(nc3ccc(O)cc13)-c1cc3c(c(=O)n1C2)COC(=O)[C@]3(O)CC + CCn1c(-c2cc(N3CCN(C)CC3)cnc2C(C)OC)c2c3cc(ccc31)-c1csc(n1)CC(NC(=O)C1CC1C)C(=O)N1CCCC(N1)C(=O)OCC(C)(C)C2
2. CC1(C)CCC(Nc2ncc(C(F)(F)F)c(-c3c[nH]c4c(P(C)(C)=O)c(C#N)ccc34)n2)CN1 (centres undefined) + CCn1c(-c2cc(N3CCN(C)CC3)cnc2C(C)OC)c2c3cc(ccc31)-c1csc(n1)CC(NC(=O)C1CC1C)C(=O)N1CCCC(N1)C(=O)OCC(C)(C)C2

**Result**
[104, 113]

----------
Tested on: 282377-053-R-J1-PDC complex spheroid viability
Test: Anticancer human tumor 282377-053-R-J1-PDC cell line growth inhibition [RAS];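 further: spheroids exposed to agents for seven days before readout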;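 on viability, T/C: luminescence viability as percent of DMSO vehicle control wells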
Settings: second compound 0.3 µM; first compound 0.1 µM; stronger effect = lower value
Record form. Attribute: viability, T/C. Fill in for each entry.
Give bare numbers, in %.

Nc1ccn(C2OC(CO)C(O)C2(F)F)c(=O)n1 (configuration not stated) + CCn1c(-c2cc(N3CCN(C)CC3)cnc2C(C)OC)c2c3cc(ccc31)-c1csc(n1)CC(NC(=O)C1CC1C)C(=O)N1CCCC(N1)C(=O)OCC(C)(C)C2: 131

API: the following record is the query input.
**Query** Recorded viability, T/C for CC1(O)CCCC1n1c(=O)c(C(F)F)cc2cnc(NC3CCN(S(C)(=O)=O)CC3)nc21 (configuration not stated) + CCn1c(-c2cccnc2C(C)OC)c2c3cc(ccc31)N1CCOC(CC(NC(=O)C(C(C)C)N(C)C(=O)C3(F)CCN(C(=O)C#CC(C)(C)N(C)C)CC3)C(=O)N3CCCC(N3)C(=O)OCC(C)(C)C2)C1 , please?
**Result** 129

----------
Tested on: 282377-053-R-J1-PDC complex spheroid viability
Assay: Anticancer human tumor 282377-053-R-J1-PDC cell line growth inhibition [RAS];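 further: spheroids exposed to agents for seven days before readout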;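 on viability, T/C: luminescence viability as percent of DMSO vehicle control wells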
Conditions: second compound 1 µM; first compound 0.1 µM; stronger effect = lower value
Record form. Attribute: viability, T/C. Fill in for each entry.
Answers are plain numbers, in %.

C=CC(=O)Nc1cc(Nc2nccc(-c3cn(C)c4ccccc34)n2)c(OC)cc1N(C)CCN(C)C + C=CC(=O)N1CCN(c2nc(OCC3CCCN3C)nc3c(F)c(-c4nc(N)cc(C)c4C(F)(F)F)c(Cl)cc23)C(C)C1: 118

Consider the following items and state reported viability, T/C for each.
1. CC1(O)CCCC1n1c(=O)c(C(F)F)cc2cnc(NC3CCN(S(C)(=O)=O)CC3)nc21 (stereo not drawn) + C#Cc1c(F)ccc2cc(O)cc(-c3ncc4c(N5CC6CCC(C5)N6)nc(OCC56CCCN5CC(F)C6)nc4c3F)c12
2. CC(Nc1ccc2c(c1)OCCn1cc(N3C(=O)OCC3C(F)F)nc1-2)C(N)=O (stereo not drawn) + C=CC(=O)N1CCN(c2nc(OCC3CCCN3C)nc3c(F)c(-c4nc(N)cc(C)c4C(F)(F)F)c(Cl)cc23)C(C)C1

**Result**
1. 111
2. 102

----------
Tested on: 282377-053-R-J1-PDC complex spheroid viability
Assay: Anticancer human tumor 282377-053-R-J1-PDC cell line growth inhibition [RAS];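 further: spheroids exposed to agents for seven days before readout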;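 on viability, T/C: luminescence viability as percent of DMSO vehicle control wells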
Details: second compound 0.000949 µM; first compound 0.3 µM; stronger effect = lower value
measured.parameter: viability, T/C (%)
Answers are plain numbers, in %.

CC1(C)CCC(Nc2ncc(C(F)(F)F)c(-c3c[nH]c4c(P(C)(C)=O)c(C#N)ccc34)n2)CN1 (centres undefined) + CCn1c(-c2cccnc2C(C)OC)c2c3cc(ccc31)N1CCOC(CC(NC(=O)C(C(C)C)N(C)C(=O)C3(F)CCN(C(=O)C#CC(C)(C)N(C)C)CC3)C(=O)N3CCCC(N3)C(=O)OCC(C)(C)C2)C1: 75.9

Consider the following items and state reported viability, T/C for each.
1. CC1(C)CCC(Nc2ncc(C(F)(F)F)c(-c3c[nH]c4c(P(C)(C)=O)c(C#N)ccc34)n2)CN1 (centres undefined) + CCn1c(-c2cc(N3CCN(C)CC3)cnc2C(C)OC)c2c3cc(ccc31)-c1csc(n1)CC(NC(=O)C1CC1C)C(=O)N1CCCC(N1)C(=O)OCC(C)(C)C2
2. CCc1c2c(nc3ccc(O)cc13)-c1cc3c(c(=O)n1C2)COC(=O)[C@]3(O)CC + CCn1c(-c2cccnc2C(C)OC)c2c3cc(ccc31)N1CCOC(CC(NC(=O)C(C(C)C)N(C)C(=O)C3(F)CCN(C(=O)C#CC(C)(C)N(C)C)CC3)C(=O)N3CCCC(N3)C(=O)OCC(C)(C)C2)C1

**Result**
[94.8, 90.6]

**Query** Hi! What's the reported viability, T/C for CCc1c2c(nc3ccc(O)cc13)-c1cc3c(c(=O)n1C2)COC(=O)[C@]3(O)CC + CCn1c(-c2cc(N3CCN(C)CC3)cnc2C(C)OC)c2c3cc(ccc31)-c1csc(n1)CC(NC(=O)C1CC1C)C(=O)N1CCCC(N1)C(=O)OCC(C)(C)C2 on 282377-053-R-J1-PDC complex spheroid viability?
**Result** 81

----------
System: 282377-053-R-J1-PDC complex spheroid viability
Experiment: Anticancer human tumor 282377-053-R-J1-PDC cell line growth inhibition [RAS];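 further: spheroids exposed to agents for seven days before readout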
Settings: curve of first compound; second compound 0.03 µM
Source text: RAS pathway inhibitors in Combinations in Complex Spheroids A high-throughput screen of multi-cell type tumor spheroids was designed to identify active combinations of RAS pathway inhibitors and targeted small molecules. Complex spheroids include a stromal component modeled by human endothelial cells (HUVEC) and fibroblasts modeled by human mesenchymal stem cells (MSCs). […] Compounds. […] If the clinical Cmax for an agent had not been determined, the highest concentration tested was 10 microM. […]
pIC50: −log10 of the molar value.
Record form. Attribute: pIC50. Fill in for each entry.

CC1(C)CCC(Nc2ncc(C(F)(F)F)c(-c3c[nH]c4c(P(C)(C)=O)c(C#N)ccc34)n2)CN1 (configuration not stated) + CCn1c(-c2cccnc2C(C)OC)c2c3cc(ccc31)N1CCOC(CC(NC(=O)C(C(C)C)N(C)C(=O)C3(F)CCN(C(=O)C#CC(C)(C)N(C)C)CC3)C(=O)N3CCCC(N3)C(=O)OCC(C)(C)C2)C1: < 6.52
O=C(c1ccc(F)c(F)c1Nc1ccc(I)cc1F)N1CC(O)([C@@H]2CCCCN2)C1 + CCn1c(-c2cc(N3CCN(C)CC3)cnc2C(C)OC)c2c3cc(ccc31)-c1csc(n1)CC(NC(=O)C1CC1C)C(=O)N1CCCC(N1)C(=O)OCC(C)(C)C2: 7.92
Cc1nc(N2CCC3(CC2)COC(C)C3N)c(CO)nc1Sc1ccnc(N)c1Cl (configuration not stated) + CCn1c(-c2cccnc2C(C)OC)c2c3cc(ccc31)N1CCOC(CC(NC(=O)C(C(C)C)N(C)C(=O)C3(F)CCN(C(=O)C#CC(C)(C)N(C)C)CC3)C(=O)N3CCCC(N3)C(=O)OCC(C)(C)C2)C1: < 5.00
Cc1nc(N2CCC3(CC2)COC(C)C3N)c(CO)nc1Sc1ccnc(N)c1Cl (configuration not stated) + CCn1c(-c2cc(N3CCN(C)CC3)cnc2C(C)OC)c2c3cc(ccc31)-c1csc(n1)CC(NC(=O)C1CC1C)C(=O)N1CCCC(N1)C(=O)OCC(C)(C)C2: < 5.00
C=CC(=O)N1CCN(c2nc(OCC3CCCN3C)nc3c(F)c(-c4nc(N)cc(C)c4C(F)(F)F)c(Cl)cc23)C(C)C1 (configuration not stated) + CCn1c(-c2cccnc2C(C)OC)c2c3cc(ccc31)N1CCOC(CC(NC(=O)C(C(C)C)N(C)C(=O)C3(F)CCN(C(=O)C#CC(C)(C)N(C)C)CC3)C(=O)N3CCCC(N3)C(=O)OCC(C)(C)C2)C1: < 6.00

Consider the following items and state reported pIC50 for each.
1. CC(=O)OC12COC1CC(O)C1(C)C(=O)C(O)C3=C(C)C(OC(=O)C(O)C(NC(=O)OC(C)(C)C)c4ccccc4)CC(O)(C(OC(=O)c4ccccc4)C21)C3(C)C (configuration not stated) + CCn1c(-c2cc(N3CCN(C)CC3)cnc2C(C)OC)c2c3cc(ccc31)-c1csc(n1)CC(NC(=O)C1CC1C)C(=O)N1CCCC(N1)C(=O)OCC(C)(C)C2
2. O=C(c1ccc(F)c(F)c1Nc1ccc(I)cc1F)N1CC(O)([C@@H]2CCCCN2)C1 + CCn1c(-c2cccnc2C(C)OC)c2c3cc(ccc31)N1CCOC(CC(NC(=O)C(C(C)C)N(C)C(=O)C3(F)CCN(C(=O)C#CC(C)(C)N(C)C)CC3)C(=O)N3CCCC(N3)C(=O)OCC(C)(C)C2)C1
3. C[C@@H](NC(=O)c1ncnc(N)c1Cl)c1ncc(C(=O)Nc2cc(C(F)(F)F)c(Cl)cn2)s1 + CCn1c(-c2cccnc2C(C)OC)c2c3cc(ccc31)N1CCOC(CC(NC(=O)C(C(C)C)N(C)C(=O)C3(F)CCN(C(=O)C#CC(C)(C)N(C)C)CC3)C(=O)N3CCCC(N3)C(=O)OCC(C)(C)C2)C1

**Result**
1: > 7.50; 2: 6.78; 3: < 5.00
